# Tested on: WPMY1-CANX-COX4
# Assay explanation: phenotypically active (imaging signature differs from DMSO and reproducible) at any of 0.3-9 uM (binary (1 = active, 0 = inactive)); higher = active
# Experimental conditions: treatment time: 24 h
In this section, each of the compounds is paired with its reported phenotypically active.

{"columns": ["Compound", "phenotypically active"],
 "data": [
  ["CCc1c(C(=O)Nc2cc(S(=O)(=O)N(CC)CC)ccc2O)[nH]c(C)c1C(C)=O", 0],
  ["CS(=O)(=O)c1cccc(CNc2nc(Nc3ccc4c(c3)CCC(=O)N4)ncc2C(F)(F)F)c1", 1],
  ["Cc1cc(-c2ccc(/C=C3\\S/C(=N\\c4ccc(Cl)c(C(=O)O)c4)NC3=O)o2)c([N+](=O)[O-])cc1C", 0],
  ["CCOC(=O)[C@H](CCc1ccccc1)N[C@@H](C)C(=O)N1[C@H](C(=O)O)C[C@@H]2CCC[C@@H]21", 0],
  ["O=c1cc(-c2ccc(O)cc2)oc2c(C3O[C@H](CO)[C@@H](O)[C@H](O)[C@H]3O)c(O)cc(O)c12 (stereo partly drawn)", 0],
  ["CC(C(=O)O)c1ccc(C(=O)c2cccs2)cc1 (stereo not drawn)", 0],
  ["CC(C)(C(=O)c1cccnc1)c1cccnc1", 0],
  ["COCCCC/C(=N/OCCN)c1ccc(C(F)(F)F)cc1", 0],
  ["C[C@@H]1C[C@H]2[C@@H]3C[C@H](F)C4=CC(=O)C=C[C@]4(C)[C@@]3(F)[C@@H](O)C[C@]2(C)[C@@]1(O)C(=O)COC(=O)C(C)(C)C [flumethasone pivalate]", 0],
  ["NC(=O)C(c1ccccc1)(c1ccccc1)[C@@H]1CCN(CCc2ccc3c(c2)CCO3)C1", 0],
  ["CNCCCC12CCC(c3ccccc31)c1ccccc12", 1],
  ["Fc1ccc(Cl)cc1-c1nc(Nc2ccncc2)c2nccnc2n1", 0],
  ["C=CCc1ccc(O)c(-c2ccc(O)c(CC=C)c2)c1", 0],
  ["OC[C@H]1NC[C@H](O)[C@@H](O)[C@@H]1O", 0],
  ["CCOc1nc(NC(=O)Cc2cc(OC)ccc2OC)cc(N)c1C#N", 0],
  ["CNC(=O)Nc1ccc(-c2nc(N3CC4CCC(C3)O4)c3cnn(C4CCC5(CC4)OCCO5)c3n2)cc1", 1],
  ["C/N=C(\\NC#N)NCCSCc1nc[nH]c1C", 0],
  ["CCc1ccc(/C=C/C(=O)Nc2ccc(C(C)=O)cc2)o1", 0]
]}

###

# System: HepG2-GM130-SQSTM1
# Assay explanation: phenotypically active (imaging signature differs from DMSO and reproducible) at any of 0.3-9 uM (binary (1 = active, 0 = inactive)); higher = active
# Experimental conditions: treatment time: 24 h

{"columns": ["Molecule", "Target or system", "phenotypically active"],
 "data": [
  ["CC(=O)NC1=NN(C(C)=O)C(C)(c2ccccc2)S1 (stereo not given)", "HepG2-GM130-SQSTM1", 1],
  ["C/C=C(/C(=C/C)c1ccc(O)cc1)c1ccc(O)cc1", "HepG2-GM130-SQSTM1", 0],
  ["C[N+](C)(C)CC[N+]1(C)Cc2c(Cl)c(Cl)c(Cl)c(Cl)c2C1 [Chlorisondamine diiodide]", "HepG2-GM130-SQSTM1", 0],
  ["O=c1[nH]cnc2[nH]ncc12", "HepG2-GM130-SQSTM1", 0],
  ["COCC(=O)N[C@@H](Cc1ccc(-c2cc(Cl)cc(Cl)c2)cc1)[C@H](O)[C@@H](O)C(=O)O", "HepG2-GM130-SQSTM1", 0]
]}

###

In this section, each of the compounds is paired with its reported phenotypically active.
# Tested on: WPMY1-TUBA1B-RELA
# Assay explanation: phenotypically active (imaging signature differs from DMSO and reproducible) at any of 0.3-9 uM (binary (1 = active, 0 = inactive)); higher = active
# Experimental conditions: treatment time: 24 h
Structures can show the parent of a compound that is named as a salt.
Quantity kind: phenotypically active

{"columns": ["Compound", "Quantity kind", "Recorded measurement"],
 "data": [
  ["CCC1=C[C@@H]2CN(C1)Cc1c([nH]c3ccccc13)[C@@](C(=O)OC)(c1cc3c(cc1OC)N(C)[C@H]1[C@@](O)(C(=O)OC)[C@H](OC(C)=O)[C@]4(CC)C=CCN5CC[C@]31[C@@H]54)C2", "phenotypically active", 1],
  ["Cc1ccc(-c2c(-c3nn(C)c4ncnc(N5CC[C@H](N6CCCCC6)C5)c34)cnn2C)cc1", "phenotypically active", 0],
  ["CN1[C@@H]2CC[C@H]1C[C@@H](OC(c1ccccc1)c1ccccc1)C2", "phenotypically active", 1],
  ["C[C@@H](Nc1ncnc2[nH]c(-c3ccc(O)cc3)cc12)c1ccccc1 [PKI 166 hydrochloride]", "phenotypically active", 1],
  ["N#Cc1c(NC(=O)c2cccc3ccccc23)sc2c1CCCC2", "phenotypically active", 1]
]}

###

# Tested on: A549-TP53BP1-CLTA
# Assay explanation: lowest phenotypically active concentration; higher = less potent
# Experimental conditions: treatment time: 24 h
Counter-ions that a name gives are not always drawn.
In this section, each of the compounds is paired with its reported lowest phenotypically active concentration.
Quantity kind: lowest phenotypically active concentration (µM)

{"columns": ["Compound", "Unit abbreviation", "Qualifier", "Recorded measurement"],
 "data": [
  ["Cc1cc(/N=N/c2ccc(S(=O)(=O)Nc3ccccn3)cc2)c(N)cc1O", "µM", "=", 9],
  ["CN1CC[C@H](c2c(O)cc(O)c3c(=O)cc(-c4ccccc4Cl)oc23)[C@H](O)C1 [Flavopiridol hydrochloride]", "µM", "≤", 0.3],
  ["CN1c2ccccc2C(=O)N2CCc3c([nH]c4ccccc34)[C@H]21", "µM", "=", 3],
  ["COc1ccccc1S(=O)(=O)Nc1ccc2c(c1)CN(C)C(=O)N2", "µM", "=", 3],
  ["CNc1nc(-c2ccc3c(N)n[nH]c3c2)cc(N2C[C@@H](C(=O)NC3CCCCC3)CC[C@H]2C)n1", "µM", "=", 3]
]}

###

In this section, each of the compounds is paired with its reported phenotypically active.
# Test system: WPMY1-ACTB-RAB5A
# Assay explanation: phenotypically active (imaging signature differs from DMSO and reproducible) at any of 0.3-9 uM (binary (1 = active, 0 = inactive)); higher = active
# Experimental conditions: treatment time: 24 h
Structures can show the parent of a compound that is named as a salt.

{"columns": ["Compound", "phenotypically active"],
 "data": [
  ["C=C1CN(Cc2ccc(C(=O)Nc3ccccc3N)cc2)C(=O)c2ccccc21", 1],
  ["COC(=O)Nc1nc2ccc(C(=O)c3cccs3)cc2[nH]1 [Nocodazole]", 1],
  ["CCC(=O)OCC(=O)[C@@]1(OC(=O)CC)[C@@H](C)C[C@H]2[C@@H]3CCC4=CC(=O)C=C[C@]4(C)[C@@]3(Cl)[C@@H](O)C[C@@]21C [beclomethasone-dipropionate]", 0],
  ["O=C([C@@H](Cc1cccc(C(F)(F)F)c1)NS(=O)(=O)c1cc(F)c2c(c1)CCNC2)N1CCCC1 [(R)-PFI 2 hydrochloride]", 0],
  ["CC(c1cc2ccccc2s1)N(O)C(N)=O (stereo not drawn) [zileuton]", 0],
  ["CC(C)(C)NCC(O)c1ccc(O)c(CO)c1 (stereo not drawn) [albuterol]", 0],
  ["Cc1c[nH]c2ncnc(-c3ccc(NC(=O)N(CCO)c4ccccc4)cc3)c12", 0],
  ["CCNC(=O)c1noc(-c2cc(C(C)C)c(O)cc2O)c1-c1ccc(CN2CCOCC2)cc1", 1]
]}

###

# Test system: WPMY1-TUBA1B-RELA
# Assay explanation: lowest phenotypically active concentration; higher = less potent
# Experimental conditions: treatment time: 24 h
Quantity kind: lowest phenotypically active concentration (µM)

{"columns": ["Compound", "Unit abbreviation", "Qualifier", "Recorded measurement"],
 "data": [
  ["CC1(C)CC(=O)C2=C(C1)NC(=S)NC2c1cccc(O)c1 (centres undefined)", "µM", "=", 1],
  ["CCC1=C[C@@H]2CN(C1)Cc1c([nH]c3ccccc13)[C@@](C(=O)OC)(c1cc3c(cc1OC)N(C)[C@H]1[C@@](O)(C(=O)OC)[C@H](OC(C)=O)[C@]4(CC)C=CCN5CC[C@]31[C@@H]54)C2", "µM", "≤", 0.3],
  ["O=C(Cc1ccc(-c2ccc(OCCN3CCOCC3)cc2)cn1)NCc1ccccc1", "µM", "≤", 0.3],
  ["COc1ccc(-c2cc(=O)c3c(O)cc(O)cc3o2)cc1O", "µM", "=", 9]
]}

###

# Test system: A549-TP53BP1-CLTA
# Assay explanation: phenotypically active (imaging signature differs from DMSO and reproducible) at any of 0.3-9 uM (binary (1 = active, 0 = inactive)); higher = active
# Experimental conditions: treatment time: 24 h

{"columns": ["Molecule", "phenotypically active"],
 "data": [
  ["CCC1(c2ccccc2)C(=O)NCNC1=O", 0],
  ["O=C(O)c1cc(/N=N/c2ccc(O)c(C(=O)O)c2)ccc1O", 0],
  ["COc1ccc(Cn2ccc3ccc(C(=O)NO)cc32)cc1", 0],
  ["Cc1cccc(-c2nn(C(=S)Nc3ccccc3)cc2-c2ccnc3ccccc23)n1", 0],
  ["NCC(=O)Nc1ccc(-n2nc(C(F)(F)F)cc2-c2ccc3c(ccc4ccccc43)c2)cc1", 1],
  ["CCc1ccc(/C=C/C(=O)Nc2ccc(C(C)=O)cc2)o1", 0],
  ["O=C(O)c1ccc(N2N=C(Cc3ccccc3)/C(=C/c3ccc(-c4ccccc4F)o3)C2=O)cc1", 0],
  ["COc1ccc([C@@H]2CNC(=O)C2)cc1OC1CCCC1 [(R)-(-)-Rolipram]", 0],
  ["CC(C)N(CCCNC(=O)Nc1ccc(C(C)(C)C)cc1)C[C@H]1O[C@@H](n2ccc3c(N)ncnc32)[C@H](O)[C@@H]1O", 0]
]}
